Form field: IC50 (one value per entry).
target: T1, human α4β7 integrin on cells (human, UniProt P13612 34-1032; P26010 20-798); assay: PBMC memory T cell adhesion
T1 construct: whole, on cells; also called α4β7 cell (Hu); RPMI8866 cells
Bridge positions count the residues as written; N and C are the ends. Square brackets hold non-standard residues; d marks the D form. Phe(4-COOH) = N[C@@H](Cc1ccc(C(=O)O)cc1)C(=O)O; Phe(4-tBu) = CC(C)(C)c1ccc(C[C@H](N)C(=O)O)cc1; NMeR = CN[C@@H](CCCNC(=N)N)C(=O)O; β3hE = N[C@@H](CCC(=O)O)CC(=O)O; Pen = CC(C)(S)[C@H](N)C(=O)O

Consider the reported IC50 for these binders:
>  <Binder>
Ac-[Pen][NMeR]SDTL[Pen][Phe(4-tBu)][β3hE][dK]-OH (disulfide 1-7; not fully specified (residue 10); printed as (Ac Pen N-Me-R S D T L Pen F(4tBu) b-H-E k OH)2 DIG, disulfide Pen-Pen; also: homodimer (…)2 DIG via D-Lys10 NZ) [SEQ ID NO: 168]

>  <IC50>
≤ 10 nM

$$$$
>  <Binder>
Ac-[Pen][NMeR]SDTL[Pen][Phe(4-COOH)]E[dK]-NH2 (disulfide 1-7; not fully specified (residue 10); printed as (Ac Pen N-Me-R S D T L Pen F(4-COOH) E k NH2)2 DIG, disulfide Pen-Pen; also: homodimer: two subunits joined by DIG linker) [SEQ ID NO: 129]

>  <IC50>
≤ 10 nM

$$$$

Item Ac-[Pen][NMeR]SDTL[Pen][Phe(4-tBu)][β3hE][dK]-NH2 (disulfide 1-7; not fully specified (residue 10); printed as (Ac Pen N-Me-R S D T L Pen F(4-tBu) b-H-E k NH2)2 IDA PEG4 Biotin, disulfide Pen-Pen; also: homodimer (…)2 IDA PEG4 Biotin via D-Lys10 NZ) [SEQ ID NO: 167] has what recorded IC50?
≤ 10 nM

Reported IC50 for Ac-[Pen][NMeR]SDTL[Pen][Phe(4-COOH)][β3hE][dK]-NH2 (disulfide 1-7; not fully specified (residue 10); printed as (Ac Pen N-Me-R S D T L Pen F(4-COOH) b-H-E k NH2)2 DIG, disulfide Pen-Pen; also: homodimer, two subunits joined by DIG linker) [SEQ ID NO: 130] : what is it?
≤ 10 nM

For Ac-[Pen][NMeR]SDTL[Pen][Phe(4-tBu)][β3hE][dK]-NH2 (disulfide 1-7; not fully specified (residue 10); printed as (Ac Pen N-Me-R S D T L Pen F(4-tBu) b-H-E k NH2)2 IDA, disulfide Pen-Pen; also: homodimer (…)2 IDA via D-Lys10 NZ) [SEQ ID NO: 166] , what is its reported IC50?
≤ 10 nM
